Consider the following molecules and their measured CC50 readings.
Test system: SF-295
Measurement notes: NCI growth inhibition and cytotoxicity screen, CNS Cancer panel
Type: cell-based
Recorded conditions: Homo sapiens; Table 2; cell line SF-295 (CNS Cancer); read-out: LC50 (the source's name)

Use these answered entries as a reference point.
COc1cc(/C(C#N)=C/c2cnc3ccccc3c2)cc(OC)c1OC; > 100 µM
COc1cc(/C(C#N)=C/c2ccc3ccccc3n2)cc(OC)c1OC; > 100 µM
COc1cc(OC)cc(/C(C#N)=C/c2ccc3ccccc3n2)c1; > 100 µM

Moving on to the next molecule.
Per the record, "COc1cc(OC)cc(/C(C#N)=C/c2cnc3ccccc3c2)c1" has CC50 of > 100 µM

---

Consider the following molecules and their measured GI50 readings.
Test system: T-47D
Measurement notes: NCI growth inhibition and cytotoxicity screen, Breast Cancer panel
Recorded conditions: Homo sapiens, T47D

COc1cc(OC)cc(/C(C#N)=C/c2ccc3ccccc3n2)c1; 1230 nM
COc1cc(OC)cc(/C(C#N)=C/c2cnc3ccccc3c2)c1; 628 nM
COc1cc(/C=C/c2nc3ccccc3s2)cc(OC)c1OC; 0.96 nM
COc1cc(OC)cc(/C(C#N)=C/c2c[nH]c3ccccc23)c1; > 100 nM

Moving on to the next molecule.
Per the record, "COc1cc(/C=C/c2cc3ccccc3o2)cc(OC)c1OC" has GI50 of 0.69 nM

---

Test system: OVCAR-3
Observation type: GI50 (nM)
Respond numerically; units are nM and should not be typed.

COc1cc(OC)cc(/C(C#N)=C/c2ccc3ccccc3n2)c1 [PNR-4-84]; 309

Per the record, COc1cc(OC)cc(/C(C#N)=C/c2c[nH]c3ccccc23)c1 [Formula (I)(b)] has GI50 of 31.2

Per the record, COc1cc(/C=C/c2cc3ccccc3o2)cc(OC)c1OC [Formula (I)(c)] has GI50 of 0.42

---

Tested on: KM12
Measurement notes: NCI growth inhibition and cytotoxicity screen, Colon Cancer panel
Recorded conditions: Homo sapiens, KM12, read-out: LC50
Consider the following molecules and their measured CC50 readings.

Use these answered entries as a reference point.
COc1cc(OC)cc(/C(C#N)=C/c2ccc3ccccc3n2)c1; > 100 µM
COc1cc(/C(C#N)=C/c2ccc3ccccc3n2)cc(OC)c1OC; > 100 µM

Moving on to the next molecule.
Per the record, "COc1cc(OC)cc(/C(C#N)=C/c2c[nH]c3ccccc23)c1" has CC50 of > 100 µM

---

In what follows, each item is paired with its GI50 for MDA-MB-435.
The answer should read as a number with its unit following.

COc1cc(/C(C#N)=C/c2cnc3ccccc3c2)cc(OC)c1OC; 227 nM

Param item: "COc1cc(OC)cc(/C(C#N)=C/c2cnc3ccccc3c2)c1" ; param system: MDA-MB-435; output GI50: 53 nM

Param item: "COc1cc(OC)cc(/C(C#N)=C/c2ccc3ccccc3n2)c1" ; param system: MDA-MB-435; output GI50: 147 nM

---

In what follows, each item is paired with its GI50 for HOP-62.
Respond numerically; units are nM and should not be typed.

COc1cc(/C=C/c2nc3ccccc3s2)cc(OC)c1OC; 0.39
COc1cc(OC)cc(/C(C#N)=C/c2ccc3ccccc3n2)c1; 959
COc1cc(/C(C#N)=C/c2cnc3ccccc3c2)cc(OC)c1OC; 10300
COc1cc(/C=C/c2cc3ccccc3o2)cc(OC)c1OC; 0.77
COc1cc(/C(C#N)=C/c2ccc3ccccc3n2)cc(OC)c1OC; 567

Moving on to the next molecule.
Per the record, "COc1cc(OC)cc(/C(C#N)=C/c2cnc3ccccc3c2)c1" has GI50 of 793

Data origin: patent US9884842B2
